Ref: paper PMC5901702

Reported % Activity Rce1p is given for each of the following molecules.
target: UniProtKB Q03530; assay: Target specificity: Rce1p activity; assay type: biochemical; conditions: 100 µM compound; relative to DMSO control = 100%
Sequence (Q03530 whole entry): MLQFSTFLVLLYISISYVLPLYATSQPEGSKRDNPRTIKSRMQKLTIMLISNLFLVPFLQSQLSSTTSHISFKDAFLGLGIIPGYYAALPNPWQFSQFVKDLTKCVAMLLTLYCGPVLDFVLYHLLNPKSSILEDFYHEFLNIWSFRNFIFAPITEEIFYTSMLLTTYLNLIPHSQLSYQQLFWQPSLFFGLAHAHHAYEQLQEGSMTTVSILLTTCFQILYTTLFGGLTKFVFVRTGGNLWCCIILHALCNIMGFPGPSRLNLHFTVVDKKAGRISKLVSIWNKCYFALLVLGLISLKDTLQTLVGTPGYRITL
measured.parameter: % Activity Rce1p (%)

substance.smiles	measured.parameter	recorded.value
O=S(=O)(O)CCCc1cccc2ccccc12	% Activity Rce1p	89.7
O=C(O)c1ccc(Oc2nc3ccccc3s2)cc1	% Activity Rce1p	89.6
O=C(CCN1CC2CCC(CC2)C1)c1cccs1	% Activity Rce1p	90.1
